The measured values listed here are drawn from patent US20120172293A1.

- study.target: T1, human Y2 receptor (human, UniProt P49146 1-381)
- T1 sequence (looked up): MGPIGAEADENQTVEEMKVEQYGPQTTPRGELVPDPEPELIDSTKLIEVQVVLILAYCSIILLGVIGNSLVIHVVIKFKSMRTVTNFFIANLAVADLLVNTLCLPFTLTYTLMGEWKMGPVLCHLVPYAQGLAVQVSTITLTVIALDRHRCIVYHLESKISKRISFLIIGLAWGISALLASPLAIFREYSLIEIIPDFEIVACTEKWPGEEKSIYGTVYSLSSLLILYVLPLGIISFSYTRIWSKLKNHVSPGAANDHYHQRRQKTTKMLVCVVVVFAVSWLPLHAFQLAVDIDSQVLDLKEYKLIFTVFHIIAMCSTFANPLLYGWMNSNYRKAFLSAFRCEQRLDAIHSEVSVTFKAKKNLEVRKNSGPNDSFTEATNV
- procedure.details: cell-based or functional assay
Non-standard residues stand in square brackets, D forms with d. No end group written: not given here. Arg(Me) = CNC(=N)NCCC[C@H](N)C(=O)O; 4Amb = NCc1ccc(C(=O)O)cc1
outcome.measure: GBA EC50 Ratio (vs PYY(3-36)), [35S]GTPγS

| binder | result |
| --- | --- |
| [4Amb]RAYINLISRQRY-NH2 (N-terminus assumed; SMILES CC[C@H](C)[C@H](NC(=O)[C@H](Cc1ccc(O)cc1)NC(=O)[C@H](C)NC(=O)[C@H](CCCNC(=N)N)NC(=O)c1ccc(CN)cc1)C(=O)N[C@@H](CC(N)=O)C(=O)N[C@@H](CC(C)C)C(=O)N[C@H](C(=O)N[C@@H](CO)C(=O)N[C@@H](CCCNC(=N)N)C(=O)N[C@@H](CCC(N)=O)C(=O)N[C@@H](CCCNC(=N)N)C(=O)N[C@@H](Cc1ccc(O)cc1)C(N)=O)[C@@H](C)CC, also called compound No. 60) [4-Aminomethylbenzoyl-[Ala26, Ile28,31, Ser32]-PYY(25-36)] | 44 ratio |
| [dA]SLRAYINLITRQ[Arg(Me)]Y-NH2 (N-terminus assumed; SMILES CC[C@H](C)[C@H](NC(=O)[C@H](Cc1ccc(O)cc1)NC(=O)[C@H](C)NC(=O)[C@H](CCCNC(=N)N)NC(=O)[C@H](CC(C)C)NC(=O)[C@H](CO)NC(=O)[C@@H](C)N)C(=O)N[C@@H](CC(N)=O)C(=O)N[C@@H](CC(C)C)C(=O)N[C@H](C(=O)N[C@H](C(=O)N[C@@H](CCCNC(=N)N)C(=O)N[C@@H](CCC(N)=O)C(=O)N[C@@H](CCCNC(=N)NC)C(=O)N[C@@H](Cc1ccc(O)cc1)C(N)=O)[C@@H](C)O)[C@@H](C)CC, also called compound No. 3) [[D-Ala22, Ala26, Ile28,31, Arg(Me)35]-PYY(22-36)] | 2.7 ratio |
